B1: LOC100129726 (parent)
chain: AKAADSPTRNDLESGLGHFSLRVH

- Variants of: B1
- EXPERIMENTAL PROTOCOL: protein stability index of a GFP-peptide fusion (GPS, HEK-293T) (PSI 1-6); higher = more stable;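 note: lentivirally expressed fusions sorted by FACS into six bins by GFP to DsRed ratio, PSI derived from sequencing read proportions per bin multiplied by bin number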
- EXPERIMENTAL CONDITIONS: c terminus: a fixed tail appended
PROPERTY LABEL: protein stability index
Provide a numeric answer; units are not to be included.

// query Note protein stability index for the variant shown: T8M
// result 2.12

// query Annotate the variant V23D with its measured protein stability index.
// result 4.68

// query Indicate the recorded protein stability index value for this variant: D11F
// result 2.75

// query Quote protein stability index reported for S6L please.
// result 2.16

// query Give protein stability index for the following variant: F19R
// result 4.28

// query Respond only with protein stability index recorded for T8C
// result 2.07

// query Kindly indicate its recorded protein stability index. Item: H24Q
// result 3.53

// query Consider the variant E13S . State its measured protein stability index.
// result 2.8

// query Output measured protein stability index for this item: G15T
// result 2.67

// query Respond only with protein stability index recorded for S20Y
// result 1.58

// query Look up and report measured protein stability index for this entry: F19N
// result 4.24

// query Look up protein stability index of S14C and report it.
// result 2.34

// query Complete the entry with protein stability index for H18P
// result 3.04

// query Return reported protein stability index. Input variant: H18S
// result 3.73

// query Quote protein stability index reported for L21P please.
// result 4.25

// query Give recorded protein stability index. R22S
// result 2.98

// query Identify protein stability index associated with the variant L12R
// result 3.76

// query Return reported protein stability index. Input variant: S6F
// result 2.74

// query For the variant A3T , give its reported protein stability index.
// result 2.58

// query Tell us which protein stability index value is on record for V23M
// result 3.29

// query Supply measured protein stability index of S20T in your reply.
// result 3.1

// query Determine its reported protein stability index: S6D
// result 3.44
